Where do these numbers come from? They come from PubChem BioAssay (NCATS).

- Tested on: Tov-21-G
- PROTOCOL_SUMMARY: Primary qHTS to identify gynecologic anti-cancer compounds using libraries of approved drugs and bioactive compounds (AID 1345084); also: nearly all actives have a fitted effect of over 55% in size
- TEST_PARAMETERS: Gynecologic cancer cell panel viability, ATPlite luminescence, 48 h; series mostly up to 57.5 µM
Results filed as inconclusive are left out. Activity calls are given as the source filed them. Calls follow the shape of the dose curve; as a rule, active = well fitted cell-killing curve with a large enough effect; inconclusive = small, poorly fitted or top-dose-only effect, or effect the other way; inactive = flat fitted curve, though single readings scatter.
Result category, one only: active, inactive

Observe how each entry below is paired with its result.
compound=Cc1cc(C)cc(C(=O)NOCCCCCC(=O)NO)c1 cat=active
compound="CC12CCC(C(OC3OC(COC4OCC(O)(CO)C4O)C(O)C(O)C3O)C1)C(C)(C)O2 (stereo not drawn)" cat=inactive
compound="CC1=CC2C(CC1OC1OC(CO)C(O)C(O)C1O)C(C)CC(=O)C2C(C)C (stereo not drawn)" cat=inactive

Fill in: this test's call for "C=CCC1=C[C@]2(OC)[C@H](C)[C@@H](c3ccc(O)c(OC)c3)O[C@]2(OC)CC1=O" is ___
inactive

Entry CC1OC2OC(=O)C3(C)CC4=C(CO)C5=C(CC(=O)C4(C)C(C1=O)C23)C(C)(C)OC(=O)C5 (stereo not drawn) : call = ?
inactive

Returns: the outcome recorded for CC1(C)CCCC2(C)C(CO)C(CO)=CCC12 (stereo not drawn) in this assay.
inactive

So what was the verdict on "CO[C@H]1C[C@@H]2CC[C@@H](C)[C@@](O)(O2)C(=O)C(=O)N2CCCC[C@H]2C(=O)O[C@H]([C@H](C)C[C@H]2CC[C@@H](OP(C)(C)=O)[C@H](OC)C2)CC(=O)[C@H](C)/C=C(\C)[C@@H](O)[C@@H](OC)C(=O)[C@H](C)C[C@H](C)/C=C/C=C/C=C/1C" in this test?
inactive
